Listing of recorded TGI by entry.
- Test system: NCI-H460 lung
- ASSAY PROCEDURE: NCI tumour cell line growth inhibition, 48 h
// return numeric value only (unit: µM, not printed)

Look over these answered cases.
For the compound COc1ccc(C(=O)CC2(O)C(=O)Nc3c(Cl)ccc(Cl)c32)cc1 (stereo not given) , what TGI is on record?
40.4

Also C=C1C(=O)OC2C1C(OC(=O)/C(=C/C)COC(C)=O)CC1(CO1)C1C(OC(=O)/C(=C/C)CO)C=C(C)C21 (stereo not given) ?
28.3

Also Cc1cc(Cl)n2c(nc3ccccc32)c1C#N ?
8.9

Kindly review the next compound as well.
For the compound COc1c(O)c2ccccc2c2cc(O)ccc12 , what TGI is on record?
23.3

* * *

- Test system: SR leukemia
- ASSAY PROCEDURE: NCI tumour cell line growth inhibition, 48 h; in the data active means GI50 below about 0.43 µM; inactive means the rest
// one of active, inactive, no free text

Worked set:
Per the assay record, what outcome was assigned to O=c1ccc2nc(-c3ccccc3)nn(-c3ccccc3)c-2c1 ?
active

Also CCN(CC)CCCCCCCCNc1c2ccc(Cl)cc2nc2ccc(OC)cc12 ?
active

Also CC[C@]1(O)C[C@@H]2CN(Cc3c([nH]c4ccccc34)[C@@](C(=O)OC)(c3cc4c(cc3OC)N(C)[C@H]3[C@@](O)(C(=O)OC)[C@H](OC(C)=O)[C@]5(CC)[C@@H]6C[C@@H]6CN6CC[C@]43[C@@H]65)C2)C1 ?
active

Also CCN(CC)CCn1c(=N)n(CC(O)c2ccc(Cl)c(Cl)c2)c2ccccc21 (centres undefined) ?
inactive

Consider the additional compound presented here.
Per the assay record, what outcome was assigned to C=C1C(=O)OC(CCCCCCCC)C1C(=O)O (centres undefined) ?
inactive

* * *

- System: NCI/ADR-RES ovarian
- ASSAY PROCEDURE: NCI tumour cell line growth inhibition, 48 h
Listing of recorded TGI by entry.

For the molecule CSC1=Nc2ccccc2-c2nc(-c3ccccc3)cc(-c3ccccc3)c2C1 , what TGI is on record?
> 100 µM

Also Cc1c(CNc2ccc(Cl)c(C(=O)NC(CC(=O)O)C(=O)O)c2)ccc2nc(N)nc(N)c12 (centres undefined) ?
> 1000 µM

Also CSc1nc2ccccc2c(=O)n1/N=C1\C(=O)N(CN2CCOCC2)c2ccc(Cl)cc21 ?
> 100 µM

Also COc1ccc(C2SC(N)=Nc3c2c(C)nn3C(=O)c2ccncc2)cc1 (centres undefined) ?
> 100 µM

Also CC(C)(O)Cn1c(=O)c(Oc2ccc(F)cc2F)cc2cnc(NC3CCOCC3)nc21 ?
> 25 µM

* * *

- Tested on: NCI-H23 lung
- ASSAY PROCEDURE: NCI tumour cell line growth inhibition, 48 h
RECORDED METRIC: log10 TGI (log10 of the value in µM)
Units before log transform: µM; reported quantity: TGI; transform: log10.

Look over these answered cases.
For the molecule CC(=O)O[C@@H]1C=CC(=O)C2(CC(=O)O[C@@H]2/C=C(\C)CCC=C(C)C)C1 (stereo not given in full) , what log10 TGI is on record?
0.12

Also COc1c(O)c2ccccc2c2cc(O)ccc12 ?
1.03

Also COc1cc2c(cc1OCCCC(=O)Nc1cc(C(=O)Nc3cc(C(=O)Nc4cc(C(=O)NCCCN(C)C)n(C)c4)n(C)c3)n(C)c1)N=C[C@@H]1CCCN1C2=O ?
0.64

Also N#Cc1c([N+](=O)[O-])cc(C(F)(F)F)cc1[N+](=O)[O-] ?
1.28

Kindly review the next molecule as well.
For the molecule COc1ccc(/C=C2/SC(=Nc3c(C)nn(-c4ccccc4)c3N)NC2=O)cc1 , what log10 TGI is on record?
1.77
